Test: stimulators of nuclear beta-catenin in C2C12, primary screen, imaging, WNT3A-conditioned medium, mouse C2C12, NPC library (AID 1117326); note: reference of the scale not given here
Settings: at 10 µM, stronger effect = higher value
Calls of active or inactive are those of the source. Cut-off read from the data, not from the text of the source: active = nuclear beta-catenin stimulation mostly above about 4.2% (no sharp cut-off); inactive = mostly below about 10%.

molecule	nuclear beta-catenin stimulation
COc1ccc(C(C#N)C(C)C)cc1OC (centres undefined)	-1.8% (inactive)
CC(O)CCCCn1c(=O)c2c(ncn2C)n(C)c1=O (centres undefined)	-0.6% (inactive)
CC(C)(C)c1ccc2c(S(=O)(=O)O)c(C(C)(C)C)ccc2c1	-2.9% (inactive)
CN1CCN(CCCN2c3ccccc3Sc3ccc(C(F)(F)F)cc32)CC1	32.2% (inactive)
COC(=O)CCC(=O)CN	-1.5% (inactive)
Nc1ncnc(Nc2ccccc2)n1	0.5% (inactive)
O=S1(=O)OC(c2ccc(O)cc2)(c2ccc(O)cc2)c2ccccc21	0.1% (inactive)
CNC(=O)c1c(I)c(NC(=O)CCCCC(=O)Nc2c(I)c(C(=O)O)c(I)c(C(=O)NC)c2I)c(I)c(C(=O)O)c1I	-0.7% (inactive)
COC(=O)c1ccccc1C(=O)c1ccc(OCCN2CCCCC2)cc1	0.4% (inactive)
CCCCN1CCCC[C@H]1C(=O)Nc1c(C)cccc1C	0.3% (inactive)
NC(=O)NS(=O)(=O)c1ccc(Cl)cc1	1.1% (inactive)
CCN(CC)CCOC(=O)C1(C2CCCCC2)CCCCC1	2.1% (inactive)
O=C(O)Cc1ccc2c(c1)C(=O)c1ccccc1CO2	0.5% (inactive)
CC(C)C1CCC(C(=O)N[C@H](Cc2ccccc2)C(=O)O)CC1 (some centres undefined)	-0.5% (inactive)

====

Assay: kinase inhibitors altering Pseudomonas killing of worms, whole organism (AID 651566);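 note: tested at 14 µM; sign flipped so higher z means a lower ratio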
Settings: C. elegans killed by P. aeruginosa, survival ratio
Rule: z-score under 0.2 gives Criterion not met, otherwise Criterion met.

compound	classification
CCn1c(-c2nonc2N)nc2c(C#CC(C)(C)O)nc(CN3CCCC3)cc21	Criterion not met
CC(=Nc1ccc(S(N)(=O)=O)cc1)c1c(O)[nH]c2ccccc12	Criterion not met
CS(=O)(=O)Nc1cccc(-c2ccc3c(NC(=O)C4CC4)n[nH]c3c2)c1	Criterion not met
NC(=O)c1ccc(-c2nc(-c3ccc4c(c3)OCO4)c(-c3ccccn3)[nH]2)cc1	Criterion not met
CCCN(CCS(C)(=O)=O)Cc1ccc(-c2ccc3ncnc(Nc4ccc(OCc5cccc(F)c5)c(Cl)c4)c3c2)o1	Criterion met
NC(=O)c1sc(-n2cnc3cc(C(F)(F)F)ccc32)cc1OCc1ccccc1Br	Criterion met
Fc1cccc(COc2ccc(Nc3ncnc4sc(-c5ccco5)cc34)cc2Cl)c1	Criterion met
O=C1Nc2ccc(-c3cccnc3)cc2/C1=C\c1cc(Br)c(O)c(Br)c1	Criterion met
CCN1CCC(C(=O)NC2NNC3NNC(c4cccc(F)c4F)CC32)CC1 (stereo not given)	Criterion not met
CC(C)COC(=O)c1ccc2[nH]c(O)c(C=Nc3ccc(S(N)(=O)=O)cc3)c2c1	Criterion met

====

Test: stimulators of insulin release from INS-1E, primary screen, cell-based, 5 mM glucose, NPC library (AID 1117329); note: reference of the scale not given here
Conditions: rat INS-1E insulin secretion, at 10 µM, stronger effect = higher value
Activity calls are given as the source filed them.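 Rule for the calls: active = compound raises insulin release from rat beta cells at 5 mM glucose, no numeric limit stated; inactive = the rest.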
Catalogue of insulin secretion stimulation values
readout.label: insulin secretion stimulation

smiles.data	observed.measurement
Nc1nc2c(ncn2COCCO)c(=O)[nH]1	0.5% (inactive)
OCCN1CCN(CCCN2c3ccccc3Sc3ccc(Cl)cc32)CC1	3.5% (inactive)
CCCSS/C(CCO)=C(\C)N(C=O)Cc1cnc(C)nc1N	10.2% (inactive)
CC1(C)O[C@@H]2C[C@H]3[C@@H]4C[C@H](F)C5=CC(=O)C=C[C@]5(C)[C@H]4[C@@H](O)C[C@]3(C)[C@]2(C(=O)CO)O1	1.6% (inactive)
CNC(=O)c1cnn(-c2nc(N)c3ncn([C@@H]4O[C@H](CO)[C@@H](O)[C@H]4O)c3n2)c1	-0.3% (inactive)

====

Assay: modulators of glucocorticoid suppression of NF-kB, cell-based, luciferase, IL-1B stimulus, dexamethasone (AID 624486)
Details: NF-kB luciferase reporter, IL-1B + dexamethasone, luminescence; measured here: IL-1B alone, no Dex
Parameter threshold = 0.03. Response is fulfilled when z-score meets or exceeds it, else not fulfilled.

molecule	classification
Cn1c(-c2ccncc2)c(-c2ccc(F)cc2)c2ncccc21	fulfilled
Fc1ccc(-c2ncn(C3CCNCC3)c2-c2ccnc(Oc3cccc(F)c3)n2)cc1	fulfilled
CNCC#Cc1c(F)ccc2c1C(=Cc1[nH]ccc1OC)C(=O)N2	fulfilled
Nc1c(C(=O)c2cccc(-c3ccncc3)c2)cnn1-c1ccc(F)cc1	fulfilled
O=C1NC(=O)C(c2cccc([N+](=O)[O-])c2)=C1Nc1cc(Cl)c(O)c(Cl)c1	not fulfilled
O=C1NC(=NCCc2ccc(Br)cc2)SC1=Cc1ccc2ncccc2c1	not fulfilled
COc1cc2ncn(-c3cc(O[C@H](C)c4ccccc4Cl)c(C(N)=O)s3)c2cc1OC	not fulfilled
CN1CCN(CCCNc2nc3ccc(Oc4ccc(NC(=O)Nc5cc(C(F)(F)F)ccc5F)cc4)cc3[nH]2)CC1	not fulfilled
CC(=O)Nc1ccc2c(c1)c(C1=C(c3cn(C)c4ccccc34)C(=O)NC1=O)cn2C	not fulfilled
O=C1NC(=O)C(c2ccccc2)=C1Nc1ccccc1	fulfilled
Cn1cc(/C=C2\C(=O)Nc3cccnc32)c2ccccc21	fulfilled
Nc1nc(-c2ccccn2)c(-c2ccc3ncccc3n2)s1	not fulfilled
Nc1nonc1-c1nc2cnccc2n1C1CCCCC1	not fulfilled
Fc1ccc(-c2c(-c3ccncc3)[nH]c3nccnc23)cc1	not fulfilled
NS(=O)(=O)c1ccc(-c2cc3ccncc3cc2OCc2ccccc2)cc1	not fulfilled
Cc1nc(-c2ccccc2)n2nc(NCCCN3CCOCC3)ncc12	fulfilled
Cc1cccc2c(N=Nc3ccc(S(N)(=O)=O)cc3)c(O)[nH]c12	fulfilled
COc1cc2ncn(-c3cc(OCc4cccs4)c(C(N)=O)s3)c2cc1OC	fulfilled
Cn1cc(C2=C(c3cn(CCCCN)c4ccccc34)C(=O)NC2=O)c2ccccc21	fulfilled
Fc1ccc(-c2ncn(C3CCNCC3)c2-c2ccnc(Oc3ccc(Oc4ccccc4)cc3)n2)cc1	fulfilled
Cn1cc(C2=C(c3c4n(c5ccccc35)CCC(CN)C4)C(=O)NC2=O)c2ccccc21 (configuration not stated)	not fulfilled
COc1ccc(C2=C(c3cn(C)c4ccccc34)C(=O)NC2=O)cc1OC	not fulfilled
Cn1cc(C2=C(c3c4n(c5ccccc35)CCCCC4)C(=O)NC2=O)c2ccccc21	not fulfilled
Cn1c(=O)c(Oc2cccc(F)c2)cc2cnc(NC3CCOCC3)nc21	fulfilled
CCn1c(-c2nonc2N)nc2cnc(Oc3cccc(NC(=O)c4ccc(OCCN5CCOCC5)cc4)c3)cc21	not fulfilled
COC1CCC2NC3C4NC5CCC(OC)CC5C4C4C(=O)NC(=O)C4C3C2C1 (configuration not stated)	fulfilled
COC(=O)c1cncc(/C=C/c2c(C)cc(O)cc2C)c1	fulfilled

====

Assay: glucagon-like peptide 1 release enhancers, primary assay, NCI-H716 cell line, NPC library (AID 1117341); note: reference of the scale not given here
Details: NCI-H716 cells, at 10 µM, stronger effect = higher value

molecule	GLP1 secretion stimulation (%)
NS(=O)(=O)c1cc2c(cc1C(F)(F)F)NCNS2(=O)=O	0.4
CC1Cc2ccccc2N1NC(=O)c1ccc(Cl)c(S(N)(=O)=O)c1 (stereo unspecified)	4.6
CCCCCCCC/C=C/C(=O)O	-3.8
O=C1Nc2cc(Cl)ccc2Oc2ccccc21	-0.4
CC(CC1c2ccccc2CCc2ccccc21)CN(C)C (stereo unspecified)	-1.9
CN(C)CCN(Cc1ccsc1)c1ccccn1	-2.8
CC(C)=CCNc1ncnc2c1ncn2[C@@H]1O[C@H](CO)[C@@H](O)[C@H]1O	0.8
COc1cc2nc(N(C)CCCNC(=O)C3CCCO3)nc(N)c2cc1OC (stereo unspecified)	14.6
COC(=O)c1cc(S(N)(=O)=O)ccc1OC	0.1
CCCCCCCCCCCC[N+](C)(C)Cc1ccccc1	-2.1
CCOC(=O)c1cccnc1	1.1
NC(=O)COCCN1CCN(C(c2ccccc2)c2ccc(Cl)cc2)CC1 (stereo unspecified)	2.2
N#CCC(=O)NN	-0.8
O=C(O)[C@@H]1CSCN1	-0.4
CC(=O)c1cc2ccccc2s1	0.1
O=C(COCCOCCOCC(=O)Nc1c(I)cc(I)c(C(=O)O)c1I)Nc1c(I)cc(I)c(C(=O)O)c1I	-3.2
CC(=O)Oc1ccc(C2(c3ccc(OC(C)=O)cc3)Oc3ccccc3NC2=O)cc1	1.6
O=C(N/N=C/c1ccccc1O)c1ccncc1	2.1
CSc1ccc2c(c1)N(CCC1CCCCN1C)c1ccccc1S2 (stereo unspecified)	12.4
Nc1c2c(nc3ccccc13)CCCC2	13
COc1cc(NC(C)CCCN)c2ncccc2c1 (stereo unspecified)	2.7
CCCCC/C=C\C/C=C\CCCCCCCC(=O)NC(C)c1ccccc1 (stereo unspecified)	0.2
COc1cc(C(=O)OC(COCCC(C)C)CN2CCOCC2)cc(OC)c1OC (stereo unspecified)	13.1
O=C(O)Cn1cnnn1	3.3
O=C(NN1CCCC1)NS(=O)(=O)c1ccc(Cl)cc1	-1.1
CC(=O)O[C@]1(C(C)=O)CC[C@H]2[C@@H]3C=C(C)C4=CC(=O)CC[C@]4(C)[C@H]3CC[C@@]21C	0
Cc1ccc(O)c(-n2nc3ccccc3n2)c1	4.2
CCOC(=O)[C@H](CCc1ccccc1)N[C@@H](C)C(=O)N1Cc2ccccc2C[C@H]1C(=O)O	2.9
CC(=O)Nc1nnc(S(N)(=O)=O)s1	1.4
C[C@]12C=CC(=O)C=C1CC[C@@H]1[C@@H]2C(=O)C[C@@]2(C)[C@H]1CC[C@]2(O)C(=O)CO	0.9
CCOC(=O)CN1CCCC1=O	-1.8
C#Cc1ccc(-c2ccccc2F)cc1	-0.7
O=S(=O)(O)c1ccc2c(N=Nc3ccc(S(=O)(=O)O)c4ccccc34)c(O)c(S(=O)(=O)O)cc2c1	-3.9
CCOC(=O)C(C#N)=C(c1ccccc1)c1ccccc1	-0.1
CCCC(=O)O[C@]1(C(=O)CCl)[C@@H](C)C[C@H]2[C@@H]3CCC4=CC(=O)C=C[C@]4(C)[C@@]3(F)C(=O)C[C@@]21C	-0.4
O=C(OCC1(COC(=O)c2cccnc2)CCCC(COC(=O)c2cccnc2)(COC(=O)c2cccnc2)C1O)c1cccnc1	-3.3
O=[N+]([O-])c1nccn1CO[C@@H](CO)[C@H](O)CO	-3.1
Oc1ccc(/C=C/c2cc(O)cc(O)c2)cc1	2.9
CCCN(CCC)C(=O)C(CCC(=O)OCCCN1CCN(CCOC(=O)Cc2c(C)n(C(=O)c3ccc(Cl)cc3)c3ccc(OC)cc23)CC1)NC(=O)c1ccccc1 (stereo unspecified)	3.5
O=c1n(CCCN2CCN(c3cccc(Cl)c3)CC2)nc2ccccn12	0.4
CCCCNC(=O)NS(=O)(=O)c1ccc(N)cc1	1.9
